target: SMYD3 (Homo sapiens (Human), UniProt Q9H7B4); assay: SMYD3 biochemical assay (SPA, 3H-SAM methylation of MEKK2 protein substrate); conditions: read-out: SMYD3 Biochem IC50*
Sequence (Q9H7B4 whole entry): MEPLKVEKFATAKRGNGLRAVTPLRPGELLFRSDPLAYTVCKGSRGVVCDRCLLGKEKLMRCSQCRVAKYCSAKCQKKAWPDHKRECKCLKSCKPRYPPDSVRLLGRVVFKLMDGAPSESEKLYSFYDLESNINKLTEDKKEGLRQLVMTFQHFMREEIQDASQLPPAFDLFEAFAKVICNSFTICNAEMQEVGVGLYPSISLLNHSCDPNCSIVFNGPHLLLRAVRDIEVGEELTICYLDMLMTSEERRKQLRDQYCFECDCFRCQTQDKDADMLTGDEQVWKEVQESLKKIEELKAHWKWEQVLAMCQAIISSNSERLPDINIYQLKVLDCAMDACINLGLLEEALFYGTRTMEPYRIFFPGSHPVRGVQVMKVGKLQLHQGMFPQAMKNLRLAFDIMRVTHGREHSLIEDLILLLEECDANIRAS
pIC50: −log10 of the molar value.
Where pIC50 equals or exceeds 8, the correct label is satisfied; where it does not, the label is not satisfied.

Q: Please indicate if the recorded pIC50 for `C[C@H]1C[C@@H](NC(=O)c2cc(C3CC3)on2)CCN1S(=O)(=O)N1CCNC[C@H]1c1ccccc1` meets or exceeds 8.
Ans: not satisfied

Q: What about NC1C2CN(S(=O)(=O)N3[C@@H]4CC[C@H]3C[C@@H](NC(=O)c3cc(C5CC5)on3)C4)CC12 (stereo partly shown) ?
Ans: satisfied

Q: Also, `O=C(N[C@H]1C[C@H]2CC[C@@H](C1)N2S(=O)(=O)N1CCC(NCCO)CC1)c1cc(C2CC2)on1` please.
Ans: satisfied

Q: Would you mind doing `CCNC1CCN(S(=O)(=O)N2CC[C@H](NC(=O)c3cc(C4CC4)on3)C[C@@H]2C)CC1` as well?
Ans: satisfied

---

target: SMYD3 (Homo sapiens (Human)); experiment: SMYD3 cell assay (Trimethyl-MEKK2 In-Cell Western in 293T/17 cells); assay type: cell-based; details: 293T/17 cells; read-out: SMYD3 Cell IC50 (μM)*
Please respond with 1.0 when measured IC50 is strictly beneath 5 µM, and with 0.0 in all other cases.

Q: Answer whether the molecule `CC(=O)Nc1ccc(S(=O)(=O)N2CC[C@@H](NC(=O)c3cc(C4CC4)on3)C[C@@H]2C)cc1` has IC50 strictly less than 5 µM
Ans: 0.0

Q: Input `O=C(N[C@@H]1CCN(S(=O)(=O)CCCN2CCOCC2)[C@@H](Cc2ccccc2)C1)c1cc(C2CC2)on1`
Ans: 0.0

Q: How about O=C(NC1CC2CCCC(C1)N2S(=O)(=O)c1ccccc1)c1cc(C2CC2)on1 (stereo not shown) ?
Ans: 1.0

Q: Now the same for O=C(NC1CC2CCCC(C1)N2S(=O)(=O)CCN1CCCC1)c1cc(C2CC2)on1 (stereo not shown)
Ans: 1.0

Q: Same lookup for `C[C@@H]1C[C@H](NC(=O)c2cc(C3CC3)on2)CCN1C(=O)c1cccc(C(C)(C)N)c1` , please.
Ans: 1.0

Q: Also CC(=O)Nc1ccc(S(=O)(=O)N2C3CCCC2CC(NC(=O)c2cc(C4CC4)on2)C3)cc1 (stereo not shown) ?
Ans: 0.0

Q: Can you handle `NCCS(=O)(=O)N1[C@@H]2CC[C@H]1C[C@@H](NC(=O)c1cc(C3CC3)on1)C2` next?
Ans: 1.0

---

target: SMYD3 (Homo sapiens (Human), UniProt Q9H7B4); test: SMYD3 biochemical assay (SPA, 3H-SAM methylation of MEKK2 protein substrate); details: read-out: SMYD3 Biochem IC50 (μM)*
# strict inequality: IC50 < 1 µM yields Met, everything else yields Not met

Q: Take the compound `CNc1ccc(S(=O)(=O)N2CC[C@H](NC(=O)c3cc(C4CC4)on3)C[C@@H]2C)cn1` and say whether its IC50 is less than 1 µM.
Ans: Met

Q: Moving on to `C[C@@H]1C[C@H](NC(=O)c2cc(C3CC3)on2)CCN1S(=O)(=O)c1c[nH]cn1`
Ans: Met

Q: And then `CC(C)CS(=O)(=O)N1CC[C@H](NC(=O)c2cc(C3CC3)on2)C[C@H]1C` , what is it?
Ans: Not met

Q: And `NCCCC(=O)N1CC[C@H](NC(=O)c2cc(C3CC3)on2)C[C@@H]1Cc1ccccc1` ?
Ans: Met

Q: Now the same for C[C@@H]1CC(NC(=O)c2cc(C3CC3)on2)CCN1C(=O)CN (stereo partly shown)
Ans: Not met

Q: Note, next up: `O=C(N[C@@H]1CCN(S(=O)(=O)CCN2CCOCC2)[C@@H](Cc2ccccc2)C1)c1cc(C2CC2)on1`
Ans: Not met

Q: Entry `C[C@H]1C[C@@H](NC(=O)c2cc(C3CC3)on2)CCN1C(=O)c1cccc(C(C)(C)N)c1` please
Ans: Not met

Q: Try this compound too: C[C@H]1CN(C(=O)CN)CCC1NC(=O)c1cc(C2CC2)on1 (stereo partly shown)
Ans: Not met

Q: Try this compound next: `NCCCC(=O)N1CC[C@@H](NC(=O)c2cc(C3CC3)on2)C[C@H]1Cc1ccccc1`
Ans: Not met

Q: Now try `CCCCS(=O)(=O)N1CC[C@H](NC(=O)c2cc(C3CC3)on2)C[C@H]1C` .
Ans: Not met

Q: Next compound: `C[C@@H](C(=O)N1CC[C@H](NC(=O)c2cc(C3CC3)on2)C[C@@H]1C)C1CCNCC1`
Ans: Not met

Q: Now this one: CC(=O)Nc1ccc(S(=O)(=O)N2C3CCCC2CC(NC(=O)c2cc(C4CC4)on2)C3)cc1 (stereo not shown)
Ans: Not met

Q: Same read-out for `C[C@H]1C[C@@H](NC(=O)c2cc(C3CC3)on2)CCN1S(=O)(=O)c1cccnc1NCCN` ?
Ans: Met

Q: Request: `N[C@@H]1CC[C@@H](C(=O)N2CCC(NC(=O)c3cc(C4CC4)on3)CC2)C1`
Ans: Not met

Q: Also `C[C@@H]1C[C@H](NC(=O)c2cc(C3CC3)on2)CCN1S(=O)(=O)c1ccc(N(C)CCN)nc1` ?
Ans: Met

Q: Same lookup for `C[C@H]1C[C@@H](NC(=O)c2cc(C3CC3)on2)CCN1C(=O)CCCCN` , please.
Ans: Not met

---

Field: IC50. Provide a value for each of the molecules that follow.
target: UniProt:Q9H7B4; assay: SMYD3 cell assay (Trimethyl-MEKK2 In-Cell Western in 293T/17 cells); format: cell-based; conditions: read-out: SMYD3 Cell IC50*
Unit nM implied. Number only.

Q: Please tell me: IC50 of C[C@H]1C[C@@H](NC(=O)c2cc(C3CC3)on2)CCN1S(=O)(=O)C[C@@H]1CC[C@@H](N)C1 [compound 784] , system UniProt:Q9H7B4?
Ans: 39.3

Q: Then O=C(N[C@H]1C[C@H]2CC[C@@H](C1)N2S(=O)(=O)NC1CCN[C@H](Cc2ccccc2)C1)c1cc(C2CC2)on1 (stereo partly shown) [compound 942] ?
Ans: 659

Q: Would you mind doing CN[C@H]1CC[C@@H](S(=O)(=O)N2CC[C@@H](NC(=O)c3cc(C4CC4)on3)[C@@H](C)C2)CC1 [compound 900] as well?
Ans: 177

---

target: SMYD3 (Homo sapiens (Human), UniProt Q9H7B4); experiment: SMYD3 cell assay (Trimethyl-MEKK2 In-Cell Western in 293T/17 cells); assay type: cell-based; conditions: 293T/17 cells; read-out: SMYD3 Cell IC50 (μM)*
metric: IC50 (µM)
Give your result in µM as a bare value.

Q: Look up IC50: NCCS(=O)(=O)N1[C@@H]2CC[C@H]1C[C@H](NC(=O)c1cc(C3CC3)on1)C2 [compound 395]
Ans: 3.16

Q: Next compound: C[C@H]1C[C@@H](NC(=O)c2cc(C3CC3)on2)CCN1S(=O)(=O)c1ccc(N(C)CCN)nc1 [compound 461]
Ans: 3.85

Q: What do you get for C[C@H]1C[C@@H](NC(=O)c2cc(C3CC3)on2)CCN1C(=O)c1cccc(C(C)(C)N)c1 [compound 367] ?
Ans: 30.6

---

biological target: SMYD3 (Homo sapiens (Human), UniProt Q9H7B4); assay: SMYD3 cell assay (Trimethyl-MEKK2 In-Cell Western in 293T/17 cells); format: cell-based; settings: read-out: SMYD3 Cell IC50*
Category key, based on recorded IC50: low: < 70 nM; middle: ≥ 70 nM and < 400 nM; high: ≥ 400 nM

Q: Which IC50 category applies to C[C@H]1C[C@@H](NC(=O)c2cc(C3CC3)on2)CCN1S(=O)(=O)C1CCC(CN)C1 (stereo partly drawn) here?
Ans: low

Q: Param item: `CC[C@@H]1CNCCN1S(=O)(=O)N1CC[C@H](NC(=O)c2cc(C3CC3)on2)C[C@@H]1C`
Ans: high

Q: Request: `CCC[C@@H]1C[C@H](NC(=O)c2cc(C3CC3)on2)CCN1S(=O)(=O)CC1CCN(C)CC1`
Ans: low

Q: Try this molecule next: `CN1CCC(NS(=O)(=O)N2[C@@H]3CC[C@H]2C[C@@H](NC(=O)c2cc(C4CC4)on2)C3)CC1`
Ans: middle

Q: Likewise for `CC[C@H]1C[C@@H](NC(=O)c2cc(C3CC3)on2)CCN1S(=O)(=O)CC1CCN(C)CC1` ?
Ans: high

Q: `CCc1cc(C(=O)N[C@H]2C[C@H]3CC[C@@H](C2)N3S(=O)(=O)CC2CCN(C)CC2)no1` , same question.
Ans: low

Q: Input `O=C(N[C@H]1C[C@H]2CC[C@@H](C1)N2S(=O)(=O)N1CCC(NCCC(F)(F)F)CC1)c1cc(C2CC2)on1`
Ans: middle

Q: What about `C[C@H]1CN(S(=O)(=O)[C@H]2CC[C@H](N(C)C)CC2)CC[C@H]1NC(=O)c1cc(C2CC2)on1` ?
Ans: middle

Q: Likewise for `N#Cc1ccc(CNC2CCN(S(=O)(=O)N3[C@@H]4CC[C@H]3C[C@@H](NC(=O)c3cc(C5CC5)on3)C4)CC2)cc1` ?
Ans: high

Q: What would you report for `C[C@H]1C[C@@H](NC(=O)c2cc(C3CC3)on2)CCN1S(=O)(=O)N1CCC(N(C)CCN2CCOCC2)CC1` ?
Ans: high

Q: Record: `CC(C)CN1CCC(CS(=O)(=O)N2[C@@H]3CC[C@H]2C[C@@H](NC(=O)c2cc(C4CC4)on2)C3)CC1`
Ans: low

Q: Can you handle `O=C(N[C@H]1C[C@H]2CC[C@@H](C1)N2S(=O)(=O)[C@H]1CCCCNC1)c1cc(C2CC2)on1` next?
Ans: middle

Q: Can you check `O=C(N[C@H]1C[C@H]2CC[C@@H](C1)N2S(=O)(=O)N(Cc1ccccc1)C1CCNCC1)c1cc(C2CC2)on1` next?
Ans: middle

Q: Next molecule up: `O=C(N[C@H]1C[C@H]2CC[C@@H](C1)N2S(=O)(=O)N1CCC(NCc2ccc(C(F)(F)F)cc2)CC1)c1cc(C2CC2)on1`
Ans: middle

Q: Now the same for `O=C(N[C@H]1C[C@H]2CC[C@@H](C1)N2S(=O)(=O)[C@@H]1CCCCNC1)c1cc(C2CC2)on1`
Ans: middle

Q: Another: `CCc1cc(C(=O)N[C@H]2CCN(S(=O)(=O)N3CCC(N)CC3)[C@@H](C)C2)no1`
Ans: low

Q: Check CCC1CN(C)CCN1S(=O)(=O)N1[C@@H]2CC[C@H]1C[C@@H](NC(=O)c1cc(C3CC3)on1)C2 (stereo partly drawn) too.
Ans: high

Q: Next molecule up: `C[C@H](N)c1ccc(S(=O)(=O)N2[C@@H]3CC[C@H]2C[C@@H](NC(=O)c2cc(C4CC4)on2)C3)cc1`
Ans: high

Q: Please give the result for `O=C(N[C@H]1C[C@H]2CC[C@@H](C1)N2S(=O)(=O)N1CC2(CCN(Cc3ccccc3)CC2)C1)c1cc(C2CC2)on1` too.
Ans: middle

Q: Entry to check: `CC1(N)CCN(S(=O)(=O)N2[C@@H]3CC[C@H]2C[C@@H](NC(=O)c2cc(C4CC4)on2)C3)CC1`
Ans: low

Q: Try the molecule `C[C@H]1C[C@@H](NC(=O)c2cc(C3CC3)on2)CCN1S(=O)(=O)C[C@H]1CC[C@H](N)C1`
Ans: low

Q: // next record `O=C(N[C@H]1C[C@H]2CC[C@@H](C1)N2S(=O)(=O)N1CCC2(CCCN2)CC1)c1cc(C2CC2)on1`
Ans: middle

Q: // same read-out, input: `CN(Cc1ccccc1)C1CCN(S(=O)(=O)N2[C@@H]3CC[C@H]2C[C@@H](NC(=O)c2cc(C4CC4)on2)C3)CC1`
Ans: high

Q: Lookup `COCCN1C2CCC1CN(S(=O)(=O)N1[C@@H]3CC[C@H]1C[C@@H](NC(=O)c1cc(C4CC4)on1)C3)C2`
Ans: middle
